Recorded values, source PubChem BioAssay.

Test system: XIP peptide (Xip251-270) binding
PROTOCOL_NOTES: small-molecule binders of XIP peptide, primary screen, biochemical, small-molecule microarray, fluorescence 635/667 nm, 0.1 µg/mL protein (AID 1182)
MEASUREMENT_SETUP: fluorescent protein binding, 635 nm, higher = more signal, called active from +8 up or from −8 down
REPORTED_ENDPOINT: composite z-score

- MOLECULE_SMILES: "O=C(CS)NCCCCCCNC(=O)[C@H]1C[C@H]2C(=O)NCC(=O)N2[C@H]1c1cccc(OCCO)c1"
  TESTED_TARGET: "XIP peptide (Xip251-270) binding"
  EXPERIMENTAL_RESULT: 0.419
- MOLECULE_SMILES: "COCCCNC(=O)[C@@]1(Cc2ccccc2I)c2ccccc2C(=O)N(Cc2ccccc2C(F)(F)F)[C@H]1c1ccc(CO)cc1"
  TESTED_TARGET: "XIP peptide (Xip251-270) binding"
  EXPERIMENTAL_RESULT: 0.739
- MOLECULE_SMILES: "C=C(CC1([C@@H](NP(=O)(c2ccccc2)c2ccccc2)[C@H]2C[C@@H]2CCCC)CC1)c1cccc(OC)c1"
  TESTED_TARGET: "XIP peptide (Xip251-270) binding"
  EXPERIMENTAL_RESULT: -0.68
- MOLECULE_SMILES: "NCCCCCCNC(=O)[C@@H]1C[C@@H]2C(=O)NCC(=O)N2[C@@H]1c1cccc(OCCO)c1"
  TESTED_TARGET: "XIP peptide (Xip251-270) binding"
  EXPERIMENTAL_RESULT: 0.592

---

Entries annotated with measured composite z-score
PROTOCOL_NOTES: small-molecule microarray binders of probe aDKK1, primary screen, biochemical, biotinylated probe, 635/667 nm fluorescence (AID 1099);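 also: score merges 667nm spot fluorescence with signal to noise across triplicate slides; reference of the scale not given here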
MEASUREMENT_SETUP: higher = more signal

- COMPOUND: "CCCCCCCCCCC(O)C1C=CC2C(=O)N(C)C(=O)C2N1Nc1ccccc1 (configuration not stated)"
  composite z-score: -0.0132
- COMPOUND: "COCCOC(=O)N1C(=O)[C@@]2(c3cc(C#CCCO)ccc31)[C@H](C(=O)N1CCN(c3ncccn3)CC1)[C@H]1C(=O)O[C@H](c3ccccc3)[C@H](c3ccccc3)N1[C@@H]2c1ccc(OCCO)cc1"
  composite z-score: -0.019
- COMPOUND: "CCOC(=O)C1=CC[C@@H](c2ccccc2)N(S(=O)(=O)c2ccc(C)cc2)[C@@H]1C#N"
  composite z-score: 0.386
- COMPOUND: "CCN1C(=O)C2CC(=O)C3C(CN(S(=O)(=O)c4ccc(C)cc4)C3c3ccc(C)cc3)C2C1=O (configuration not stated)"
  composite z-score: 0.972
- COMPOUND: "O=C1O[C@H](c2ccccc2)[C@H](c2ccccc2)N2[C@H]1[C@@H](C(=O)Nc1nc3ccccc3s1)[C@]1(C(=O)Nc3ccccc31)[C@H]2c1ccccc1OCCO"
  composite z-score: 0.0289
- COMPOUND: "C=CCNC(=O)[C@H]1[C@@H]2C(=O)O[C@@H](c3ccccc3)[C@@H](c3ccccc3)N2[C@@H](c2ccc(O)cc2)[C@]12C(=O)Nc1ccc(C#CCC(C(=O)OC)C(=O)OC)cc12"
  composite z-score: 0.199
- COMPOUND: "O=C1O[C@H](c2ccccc2)[C@H](c2ccccc2)N2[C@H]1[C@@H](C(=O)O)[C@]1(C(=O)Nc3ccc(C#CC4(O)CCCCCC4)cc31)[C@H]2c1ccccc1OCCO"
  composite z-score: 0.0035
- COMPOUND: "COc1ccc(CCNC(=O)[C@@H]2c3ccccc3C(=O)N(C(C)C)[C@H]2c2ccc(CO)cc2)cc1"
  composite z-score: 0.316
- COMPOUND: "CCCNC(=O)[C@@]1(Sc2ccc(C)cc2)CC(=O)N(Cc2cc(C(F)(F)F)cc(C(F)(F)F)c2)[C@@H]1c1ccc(CO)cc1"
  composite z-score: -0.09
- COMPOUND: "CC[C@H]1C2=C3C(CC[C@H]4C(OCc5ccc(F)cc5C(F)(F)F)OC[C@](C)([C@@H]34)N(C(=O)OC(C)(C)C)C2)C(COC(C)=O)C1COC(C)=O (some centres not stated)"
  composite z-score: 0.62
- COMPOUND: "C=CC[C@H](O)c1ccc(O)c2ccccc12"
  composite z-score: -0.196
- COMPOUND: "C=CC[C@]1(C(=O)NCC(O)CO)N=C(c2ccc(OCCCO)cc2)O[C@H]1c1ccccc1CN=[N+]=[N-] (some centres not stated)"
  composite z-score: 0.783
